Test: NCI Yeast Anticancer Drug Screen. Data for the wt2 strain (AID 169)
Details: S. cerevisiae wt2 strain growth inhibition; at 33.0 µM
The panel holds about 79,000 compounds, 15% with a hit somewhere; the sample as a whole holds those more often. The source made the active and inactive calls. No stated cut-off is given here; in the data, active means growth inhibition above about 70%; inactive means the rest.
Outcome codes: TRUE = active, FALSE = inactive

{"COMPOUND": "S=C(S)NCC1CCC(CNC(=S)S)CC1 (stereo unspecified)", "CLASS LABEL": "FALSE"}
{"COMPOUND": "NP1(Oc2ccc(F)cc2)=NP(N)(Oc2ccc(F)cc2)=NP(Oc2ccc(F)cc2)(Oc2ccc(F)cc2)=N1 (stereo unspecified)", "CLASS LABEL": "FALSE"}
{"COMPOUND": "CC(=O)OCC1OC(O[C@H]2C=C[C@@H](C(=O)OCc3ccccc3)n3c(=O)n(-c4ccccc4)c(=O)n32)C(OC(C)=O)C(OC(C)=O)C1OC(C)=O (stereo partly specified)", "CLASS LABEL": "TRUE"}
{"COMPOUND": "CC1=CCC(C(C)(C)c2ccc(O)cc2)CC1 (stereo unspecified)", "CLASS LABEL": "TRUE"}
{"COMPOUND": "C/C(=N\\NC(=S)NNC(=S)N(C)c1ccccc1)c1ccccn1", "CLASS LABEL": "TRUE"}
{"COMPOUND": "COC(=O)c1ccc2c(c1)Cc1ccccc1-2", "CLASS LABEL": "FALSE"}
{"COMPOUND": "Nc1nc(F)nc2c1ncn2C1OC(COP(=O)(O)O)C(O)C1O (stereo unspecified)", "CLASS LABEL": "FALSE"}
{"COMPOUND": "O=C(O)c1cccc2cccc(-c3c4ccc(=O)cc-4oc4cc(O)ccc34)c12", "CLASS LABEL": "TRUE"}
{"COMPOUND": "O=c1ccc(N=Nc2ccccc2)ccc1O", "CLASS LABEL": "TRUE"}
{"COMPOUND": "Cc1c2cc[n+](CCN3CCCCC3)cc2c(C)c2c1[nH]c1ccc(O)cc12", "CLASS LABEL": "FALSE"}
{"COMPOUND": "CC(C)(C)[OH+][O-].[O-]c1ccc(Cl)cc1C=Nc1ccc(Cl)cc1[O-].[O]=[V]", "CLASS LABEL": "FALSE"}
{"COMPOUND": "Cc1ccc(Nc2n[nH]c(=S)s2)cc1", "CLASS LABEL": "FALSE"}
{"COMPOUND": "O=C1C=CC(=Nc2ccccc2)c2ccccc21", "CLASS LABEL": "FALSE"}
{"COMPOUND": "c1ccc2c(c1)ccc1c3ccncc3ccc21", "CLASS LABEL": "TRUE"}
{"COMPOUND": "CCN1/C(=C/c2ccc3ccccc3[n+]2CC)C=Cc2ccccc21", "CLASS LABEL": "TRUE"}
{"COMPOUND": "O=[N+]([O-])c1cccc2nc3ccccc3c(NCCc3cccc[n+]3[O-])c12", "CLASS LABEL": "FALSE"}
{"COMPOUND": "O=C1OC2C(O)COC2(OCc2c[nH]c3ccccc23)C1O (stereo unspecified) (tested in a mixture with another compound)", "CLASS LABEL": "FALSE"}
{"COMPOUND": "CC1OC(OC2CCCc3c(O)c4c(c(O)c32)C(=O)c2ccccc2C4=O)CC(N)C1O (stereo unspecified)", "CLASS LABEL": "TRUE"}
{"COMPOUND": "O=C1c2ccccc2C(=O)c2cc(S(=O)(=O)Nc3ccccc3)ccc21", "CLASS LABEL": "FALSE"}
{"COMPOUND": "COC(=O)c1n[nH]c(C)c1N=NN(C)CCC#N", "CLASS LABEL": "TRUE"}
{"COMPOUND": "COc1cc([C@@H]2c3cc4c(cc3[C@@H](OC3OC5COC(C)OC5C(O)C3O)[C@H]3COC(=O)[C@H]23)OCO4)cc(OC)c1O (stereo partly specified)", "CLASS LABEL": "FALSE"}
